Biological target: recombinant human CYP3A4 (rCYP3A4) (Homo sapiens, UniProt P08684)
Sequence (P08684 whole entry): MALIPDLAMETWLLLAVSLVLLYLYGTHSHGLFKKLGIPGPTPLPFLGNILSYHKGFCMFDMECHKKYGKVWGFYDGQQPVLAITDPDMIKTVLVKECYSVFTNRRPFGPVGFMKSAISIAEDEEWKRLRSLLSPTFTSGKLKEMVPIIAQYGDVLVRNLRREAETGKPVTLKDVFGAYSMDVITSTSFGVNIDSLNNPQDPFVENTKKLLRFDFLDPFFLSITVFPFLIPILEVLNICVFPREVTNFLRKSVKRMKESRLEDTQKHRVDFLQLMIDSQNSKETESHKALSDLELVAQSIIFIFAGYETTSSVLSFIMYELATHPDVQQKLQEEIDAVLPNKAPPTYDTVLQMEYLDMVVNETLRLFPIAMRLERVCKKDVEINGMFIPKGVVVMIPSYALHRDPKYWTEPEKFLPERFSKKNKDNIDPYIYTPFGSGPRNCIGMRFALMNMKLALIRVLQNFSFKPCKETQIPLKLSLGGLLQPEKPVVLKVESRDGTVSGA
Test: Inhibition of tofacitinib metabolism (M8 formation) by rCYP3A4
parameter_measured: IC50 (nM)
Give just the number in nM; leave the unit off.

Consider the compound shown here: `COc1c2ccoc2cc2oc(=O)ccc12` What is its recorded IC50?
1420

Attribution: paper PMC11033359
